- Tested on: Erythrocyte
- assay.explanation: Hemolytic activity against mouse RBC measured after 1 hrs
- Type: toxicity, cell-based
Peptide text beside a SMILES is read from it.
Property: MHC10; scope: individual compounds

Consider the following illustrative entries.
[[record]]
compound = "CC[C@H](C)[C@H](NC(=O)[C@@H]1CCCN1C(=O)[C@H](CC(C)C)NC(=O)[C@@H](N)Cc1ccccc1)C(=O)N[C@H](C(=O)N[C@@H](C)C(=O)N[C@@H](CCCCN)C(=O)N[C@@H](CC(C)C)C(=O)N[C@@H](CC(C)C)C(=O)N[C@@H](CO)C(=O)N[C@@H](CCC(=O)O)C(=O)N[C@@H](CC(C)C)C(=O)N[C@@H](CC(C)C)C(N)=O)C(C)C (H-FLPIVAKLLSELL-NH2)"
recorded_endpoint = "MHC10"
observed = "73.97 µM"

[[record]]
compound = "CC[C@H](C)[C@H](NC(=O)[C@@H]1CCCN1C(=O)[C@H](CC(C)C)NC(=O)[C@@H](N)Cc1ccccc1)C(=O)N[C@H](C(=O)N[C@@H](C)C(=O)N[C@@H](CCCCN)C(=O)N[C@@H](CC(C)C)C(=O)N[C@@H](CCC(=O)O)C(=O)N[C@@H](CO)C(=O)NCC(=O)N[C@@H](CC(C)C)C(=O)N[C@@H](CC(C)C)C(N)=O)C(C)C (H-FLPIVAKLESGLL-NH2)"
recorded_endpoint = "MHC10"
observed = "> 256 µM"


Turning now to a further compound:
Would you kindly share the measured MHC10 for CC(C)C[C@H](NC(=O)[C@H](CC(C)C)NC(=O)CNC(=O)[C@H](CO)NC(=O)[C@H](CC(C)C)NC(=O)[C@H](CC(C)C)NC(=O)[C@H](CCCCN)NC(=O)[C@H](C)NC(=O)[C@@H](NC(=O)[C@H](CCC(=O)O)NC(=O)[C@@H]1CCCN1C(=O)[C@H](CC(C)C)NC(=O)[C@@H](N)Cc1ccccc1)C(C)C)C(N)=O (H-FLPEVAKLLSGLL-NH2) ?
> 256 µM

---

- Tested on: Cell membrane
- assay.explanation: Induction of cell membrane disruption in Escherichia coli ATCC 25922 assessed as increase in PI uptake measured after 30 to 120 mins by propidium iodide staining based FACS flow cytometry analysis (reference value: 6.0 %)
- Format: subcellular
- settings: time 30-120 min
Bridge positions count the residues as written; N and C are the ends. Square brackets hold non-standard residues; d marks the D form. Peptide text beside a SMILES is read from it. * marks the point of attachment. X1 = CC[C@H](C)CCCCC(=O)*; Dab = NCC[C@H](N)C(=O)O
recorded.endpoint: Activity (%)
# number only, unit % dropped from output

Consider the following illustrative entries.
[[record]]
compound = "CC[C@H](C)CCCCC(=O)N[C@@H](CCN)C(=O)N[C@H](C(=O)N[C@@H](CCN)C(=O)N[C@H]1CCNC(=O)[C@H]([C@@H](C)O)NC(=O)[C@H](CCN)NC(=O)[C@H](CCN)NC(=O)[C@H](CC(C)C)NC(=O)[C@@H](Cc2ccccc2)NC(=O)[C@H](CCN)NC1=O)[C@@H](C)O (X1-[Dab]T[Dab][Dab][Dab][dF]L[Dab][Dab]T; lactam 4-C)"
output_unit = "%"
observed = 38.5

[[record]]
compound = "CO[C@H]1/C=C/O[C@@]2(C)Oc3c(C)c(O)c4c(O)c(c(/C=N/N5CCN(C)CC5)c(O)c4c3C2=O)NC(=O)/C(C)=C\\C=C\\[C@H](C)[C@H](O)[C@@H](C)[C@@H](O)[C@@H](C)[C@H](OC(C)=O)[C@@H]1C [RIFAMPIN]"
output_unit = "%"
observed = 17.4


Turning now to a further compound:
Tell me reported Activity for CC[C@H](C)[C@H](NC(=O)[C@@H]1CCCN1C(=O)[C@H](CC(C)C)NC(=O)[C@@H](N)Cc1ccccc1)C(=O)N[C@H](C(=O)N[C@@H](C)C(=O)N[C@@H](CCCCN)C(=O)N[C@@H](CC(C)C)C(=O)N[C@@H](CC(C)C)C(=O)N[C@@H](CO)C(=O)NCC(=O)N[C@@H](CC(C)C)C(=O)N[C@@H](CC(C)C)C(N)=O)C(C)C (H-FLPIVAKLLSGLL-NH2) , tested with Cell membrane.
78.3
